Hey, just so you know, these numbers are from patent US20260001875A1.

System: Rab10 pThr73
Experiment: Rab10 Thr73 dephosphorylation (immunoblot) in LRRK2^G2019S MEFs
Assay type: cell-based, mouse
Conditions: Mus musculus, 1 μM/4 h treatment; read-out: pRab10 inhibited in LRRK2^G2019S MEFs
Some compounds, each annotated with its measured inhibition at 1 µM.

Completed entries (count: 4):
CNc1nc(Nc2ccc(C(=O)N3CCN(CCOCCOCCN4CCN(c5ccc6c(c5)C(=O)N(C5CCC(=O)NC5=O)C6=O)CC4)CC3)cc2OC)ncc1Cl (centres unmarked) [SD10] :: 30 to 95%
CNc1nc(Nc2ccc(C(=O)N3CCN(CCOCCOCCOCCOCCOc4cc(-c5scnc5C)ccc4CNC(=O)[C@@H]4C[C@@H](O)CN4C(=O)[C@@H](NC(=O)C4(F)CC4)C(C)(C)C)CC3)cc2OC)ncc1Cl [SD79] :: 30 to 95%
CNc1nc(Nc2ccc(C(=O)N3CCN(C[C@H](C)SC(C)(C)[C@H](NC(=O)C4(F)CC4)C(=O)N4C[C@H](O)C[C@H]4C(=O)NCc4ccc(-c5scnc5C)cc4)CC3)cc2OC)ncc1Cl [XL01140] :: 20 to 100%
CNc1nc(Nc2ccc(C(=O)N3CCN(CC4CC[C@H](CSC(C)(C)C(NC(=O)C5(F)CC5)C(=O)N5C[C@H](O)C[C@H]5C(=O)NCc5ccc(-c6scnc6C)cc5)C4)CC3)cc2OC)ncc1Cl (stereo in doubt) [XL02093] :: 80 to 100%

Continue with the next compound.
Kindly indicate its recorded inhibition at 1 µM. Item: CNc1nc(Nc2ccc(C(=O)N3CCN(CCCOc4cc(-c5scnc5C)ccc4CNC(=O)[C@@H]4C[C@@H](O)CN4C(=O)[C@@H](NC(=O)C4(F)CC4)C(C)(C)C)CC3)cc2OC)ncc1Cl [SD13]
30 to 95%
